- experiment.description: Partition coefficient (logP)
- Assay type: physicochemical
- experimental.setup: octanol/water
recorded.endpoint: logP
Numbers only.

Study these solved cases before continuing.
>>> df
                                   molecule  recorded_endpoint  measured_result
0  N=C(N)Nc1cccc(C(=O)NNC(=O)CC(CC(=O)O)c2ccc(F)cc2)c1 (stereo unspecified)               logP             1.28
1  N=C(N)Nc1cccc(C(=O)NNC(=O)CC(CC(=O)O)c2ccc(-c3ccccc3)cc2)c1 (stereo unspecified)               logP              2.8
2  CC(=N)Nc1cccc(C(=O)NNC(=O)CC(CC(=O)O)c2cc(Cl)cc(Cl)c2)c1 (stereo unspecified)               logP             2.55

For each of the items listed, what is its logP?
1. COc1ccc(C(CC(=O)O)CC(=O)NNC(=O)c2cccc(N=C(C)N)c2)cc1 (stereo unspecified)
2. Cc1ccnc(NCCCCC(=O)NNC(=O)NC(CC(=O)O)c2cc(Cl)cc(Cl)c2)c1 (stereo unspecified)
3. NC(N)=Nc1cccc(C(=O)NNC(=O)NC(CC(=O)O)c2cccc3ccccc23)c1 (stereo unspecified)

1.31
2.76
1.7

Where do these numbers come from? They come from ChEMBL document CHEMBL1134450.
